# EXPERIMENT_DESCRIPTION: Human HepG2 cell viability assay in 384 well format
# Assay type: toxicity, cell-based
# Parameters: dose 125 nL, time 70.5 hour; concentration not given beside the values
# CONDITION_PARAMETERS: HepG2 cells, read-out: Inhibition
Recorded cytotoxicity at 70.5 h by entry
Field: value (include unit after the number)

Below, each entry is followed by its recorded cytotoxicity at 70.5 h result.
COMPOUND	cytotoxicity at 70.5 h
Cc1ccc(NC2CCN(C(=O)c3cnn(C(C)(C)C)c3)CC2)nn1	-14.1%
OCC(O)CSCc1ccc(Cl)cc1Cl (stereo not drawn)	0.304%
NC1CCCc2c1cnn2-c1cc(F)cc(F)c1 (stereo not drawn)	-4.65%
CCOCC1CN(C(=O)c2ccoc2)Cc2nn(C)cc21 (stereo not drawn)	-6.29%
CCOc1ccc(S(=O)(=O)Nc2cnc(OC)nc2OC)cc1	9.83%
CN(C)CC1(O)CCCN(C(=O)c2cnc(-c3ccccn3)nc2)C1 (stereo not drawn)	-3.36%
NC(=O)C1CCN(Cc2cc3c(cc2Br)OCCO3)C1 (stereo not drawn)	-1.46%
Cc1cc(C(O)CCNS(=O)(=O)c2ccc(Cl)s2)c(C)o1 (stereo not drawn)	-15.4%
COCCNC(=O)c1cc(OC)ccc1Br	0.394%
CCS(=O)(=O)CCCN1CCSCC1c1ccc(Cl)cc1 (stereo not drawn)	-13.2%

Query block: Requested field: cytotoxicity at 70.5 h. Item: COCCN1CCC(NC(=O)Nc2cccc(F)c2)C1 (stereo not drawn)
Result block: -0.696%

Query block: Requested field: cytotoxicity at 70.5 h. Item: `COCCCNC(=O)Nc1cccc2ncccc12`
Result block: 30.8%

Query block: Requested field: cytotoxicity at 70.5 h. Item: `CC(C)c1ccc(OCCC(=O)N2CCCN(C(N)=O)CC2)cc1`
Result block: -1.87%

* * *

# EXPERIMENT_DESCRIPTION: Human HepG2 cell viability assay in 384 well format
# Format: toxicity, cell-based
# Parameters: dose 125 nL, time 70.5 hour; concentration not given beside the values
# CONDITION_PARAMETERS: HepG2 cells, read-out: Inhibition
Recorded cytotoxicity at 70.5 h by entry

COMPOUND	cytotoxicity at 70.5 h
COC(=O)CCC(=O)N1CCC2(CN(Cc3cccc(Cl)c3)C2)C1	6.9%
Cc1cnn(CC2CCCN2C(=O)CCc2c(C)nc(C)[nH]c2=O)c1 (stereo unspecified)	-10.8%
CS(=O)(=O)NCC1CCCN(Cc2ccc(F)c3cccnc23)C1 (stereo unspecified)	-12.2%

Query block: Requested field: cytotoxicity at 70.5 h. Item: `O=C(c1ccnnc1)N1C[C@H](Oc2cccnc2)[C@H]2OCCC[C@H]21`
Result block: 3.85%

Query block: Requested field: cytotoxicity at 70.5 h. Item: `Cc1nc(C2CCN(C(=O)c3ccc(Cl)s3)CC2)cc(=O)[nH]1`
Result block: -6.29%

Query block: Requested field: cytotoxicity at 70.5 h. Item: `Cc1cc(CN2CCN3C[C@H](c4ccccc4)[C@@H](CO)[C@H]3C2)on1`
Result block: -5.95%

Query block: Requested field: cytotoxicity at 70.5 h. Item: `CCc1nnc(N2CCN(CCc3ccccc3)C(=O)C2)o1`
Result block: -2.76%

Query block: Requested field: cytotoxicity at 70.5 h. Item: `CC(C)N1CCc2nnc(COc3cncnc3)n2CC1`
Result block: -9.44%

Query block: Requested field: cytotoxicity at 70.5 h. Item: CN(C)S(=O)(=O)c1ccc(CN2CCCC2c2ccccc2)o1 (stereo unspecified)
Result block: 32.6%

Query block: Requested field: cytotoxicity at 70.5 h. Item: `Cc1nc(-c2ccsc2)ccc1C(=O)NCCC(=O)N1CCCC1`
Result block: -3.29%

Query block: Requested field: cytotoxicity at 70.5 h. Item: CCS(=O)(=O)N1CCOC2(CCCN(c3ccccn3)C2)C1 (stereo unspecified)
Result block: -2.6%

* * *

Recorded cytotoxicity at 70.5 h by entry
# EXPERIMENT_DESCRIPTION: Human HepG2 cell viability assay in 384 well format
# Format: toxicity, cell-based
# Set-up: dose 125 nL, time 70.5 hour; concentration not given beside the values
# CONDITION_PARAMETERS: HepG2 cells, read-out: Inhibition
Quick reminder: number only, in %, skip the unit.

Below, each entry is followed by its recorded cytotoxicity at 70.5 h result.
MOLECULE	UNIT_STRING	MEASUREMENT
CCC1CN(CC(=O)NCCOC)CCO1 (configuration not stated)	%	-4.46
CCC1c2cccn2CCN1C(=O)c1ccno1 (configuration not stated)	%	-9.21
O=C(c1csc(-c2cccs2)n1)N1CCCC1Cn1cccn1 (configuration not stated)	%	-18.2
COc1c(NS(=O)(=O)c2ccc(F)c(C)c2)c(C)nn1C	%	0.334
COc1cc(C2SCC(=O)Nc3ccsc32)cc(OC)c1O (configuration not stated)	%	-4.76
O=C(NCCN1CCOC1=O)c1cc(-c2ccccc2)on1	%	33.3

Query block: Requested field: cytotoxicity at 70.5 h. Item: Cn1ccc2c(C(=O)NC3CN4CCC3CC4)cccc21 (configuration not stated)
Result block: -32.2

Query block: Requested field: cytotoxicity at 70.5 h. Item: CC(C)N1CCC(NC(=O)NC2CCOc3ccc(Br)cc32)CC1 (configuration not stated)
Result block: 0.813

* * *

# EXPERIMENT_DESCRIPTION: Human HepG2 cell viability assay in 384 well format
# Assay type: toxicity, cell-based
# Parameters: dose 125 nL, time 70.5 hour; concentration not given beside the values
# CONDITION_PARAMETERS: HepG2 cells, read-out: Inhibition
READOUT_KIND: cytotoxicity at 70.5 h (%)
Quick reminder: number only, in %, skip the unit.

Query block: Requested field: cytotoxicity at 70.5 h. Item: `CCc1noc(CN2CCN(C(=O)COC)CC2)n1`
Result block: 6.94

Query block: Requested field: cytotoxicity at 70.5 h. Item: Cn1cnnc1C1CCCN(C(=O)c2cc(C3CC3)on2)C1 (configuration not stated)
Result block: -10.9

Query block: Requested field: cytotoxicity at 70.5 h. Item: `CC(C)OCCCNC(=O)CC1(Cn2cnnn2)CCCCC1`
Result block: -8.88

Query block: Requested field: cytotoxicity at 70.5 h. Item: `COc1ccnc(N2CCN(C(=O)c3csnn3)CC2)n1`
Result block: -3.32

Query block: Requested field: cytotoxicity at 70.5 h. Item: Cc1cc(O)cc(C2CCCN2C(=O)c2ccn(C)n2)n1 (configuration not stated)
Result block: 10.2

Query block: Requested field: cytotoxicity at 70.5 h. Item: CC1CN(C)CCN1C(=O)c1cnn(-c2cccc(Cl)c2)c1 (configuration not stated)
Result block: -9.03

Query block: Requested field: cytotoxicity at 70.5 h. Item: CCC(=O)N1CCCN(C(=O)C2SCCc3sccc32)CC1 (configuration not stated)
Result block: 3.13

Query block: Requested field: cytotoxicity at 70.5 h. Item: `COCCCN(Cc1ccccn1)S(=O)(=O)c1ccc(OC)cc1`
Result block: -14.1

Query block: Requested field: cytotoxicity at 70.5 h. Item: `CSc1nc2ccsc2c(=O)n1CC(=O)N(C)C1CCCCC1`
Result block: -5.09

Query block: Requested field: cytotoxicity at 70.5 h. Item: O=C(c1ccc2nncn2c1)N1CCCC(n2ccnc2)C1 (configuration not stated)
Result block: -14.2

Query block: Requested field: cytotoxicity at 70.5 h. Item: `CCNC(=O)CN(CC)C(=O)c1cccc(Nc2cnn(C)c2)c1`
Result block: 6.01

Query block: Requested field: cytotoxicity at 70.5 h. Item: `CNC(=O)c1cccnc1N1CCN(C/C=C/c2ccccc2)CC1`
Result block: 6.62

* * *

# EXPERIMENT_DESCRIPTION: Human HepG2 cell viability assay in 384 well format
# Type: toxicity, cell-based
# Parameters: dose 125 nL, time 70.5 hour; concentration not given beside the values
# CONDITION_PARAMETERS: HepG2 cells, read-out: Inhibition
Recorded cytotoxicity at 70.5 h by entry
Quick reminder: number only, in %, skip the unit.

Below, each entry is followed by its recorded cytotoxicity at 70.5 h result.
COMPOUND	cytotoxicity at 70.5 h / %
CCC(=O)N1CCC2(CC1)CN(CCO)Cc1ccccc12	1.97
CN1CCCN(C(=O)c2nc3c(o2)CN(C(=O)c2cccnc2)C3)CC1	-1.59
CC(C)=CCC/C(C)=C/CC(C)(C)CNCc1ccco1	-1
CN(Cc1ccc(F)cc1)C(=O)CN1CCOC(Cn2cccn2)C1 (centres undefined)	0.224
COC(=O)c1cc(C(=O)N2CCOC(C)(C)C2)n(-c2ccccc2)n1	-10.1

Query block: Requested field: cytotoxicity at 70.5 h. Item: CC(NC(=O)c1cccs1)C(=O)NS(=O)(=O)c1ccc(C#N)cc1 (centres undefined)
Result block: -5.58

* * *

# EXPERIMENT_DESCRIPTION: Human HepG2 cell viability assay in 384 well format
# Assay type: toxicity, cell-based
# Set-up: dose 125 nL, time 70.5 hour; concentration not given beside the values
# CONDITION_PARAMETERS: HepG2 cells, read-out: Inhibition
The threshold is inclusive: cytotoxicity at 70.5 h of exactly 10% counts as true; values below receive false.

Query block: Would you say `O=C1[C@H]2CN(Cc3ccoc3)C[C@H]2CN1Cc1ccncc1` shows cytotoxicity at 70.5 h at minimum 10%?
Result block: false

Query block: Would you say O=C(NCCSCc1ccc(Br)s1)C1CCCN(c2cnccn2)C1 (stereo unspecified) shows cytotoxicity at 70.5 h at minimum 10%?
Result block: true

Query block: Would you say Cn1cc(CN2CCCC(n3c(=O)oc4ccccc43)C2)cn1 (stereo unspecified) shows cytotoxicity at 70.5 h at minimum 10%?
Result block: false

Query block: Would you say `COc1ncccc1C(=O)N1CCN(C(=O)Cc2ccccn2)CC1` shows cytotoxicity at 70.5 h at minimum 10%?
Result block: false

Query block: Would you say `Cc1cnc(C)c(Oc2ccc(Cl)c(CN3CCCC3)c2Cl)n1` shows cytotoxicity at 70.5 h at minimum 10%?
Result block: true

Query block: Would you say `CCN(CC)C(=O)c1nc2c(s1)CCN(C(=O)Nc1ccccc1)CC2` shows cytotoxicity at 70.5 h at minimum 10%?
Result block: false

Ref: ChEMBL document CHEMBL3507680
